The measured values listed here are drawn from patent US8093386B2.

# tested-system: MMP-14 (Homo sapiens)
# Construct: purchased Calbiochem
# method-notes: In vitro fluorometric inhibition assay of MMPs: MMP-14
# Format: biochemical
# assay-context: Table III, pH 6.7
pIC50: −log10 of the molar value.

{"columns": ["given-smiles", "tested-system", "pIC50"],
 "data": [
  ["COc1ccc(Oc2ccc(S(=O)(=O)c3ccccc3CP(=O)(O)O)cc2)cc1", "MMP-14 (Homo sapiens)", 5.71]
]}

====

Reported IC50 values are given for each entry in this list.
# tested-system: MMP-2 (Homo sapiens, UniProt P08253)
# Construct: gift of Prof; Gillian Murphy (Oncology Department, Cambridge University, UK)
# Sequence (P08253 110-660): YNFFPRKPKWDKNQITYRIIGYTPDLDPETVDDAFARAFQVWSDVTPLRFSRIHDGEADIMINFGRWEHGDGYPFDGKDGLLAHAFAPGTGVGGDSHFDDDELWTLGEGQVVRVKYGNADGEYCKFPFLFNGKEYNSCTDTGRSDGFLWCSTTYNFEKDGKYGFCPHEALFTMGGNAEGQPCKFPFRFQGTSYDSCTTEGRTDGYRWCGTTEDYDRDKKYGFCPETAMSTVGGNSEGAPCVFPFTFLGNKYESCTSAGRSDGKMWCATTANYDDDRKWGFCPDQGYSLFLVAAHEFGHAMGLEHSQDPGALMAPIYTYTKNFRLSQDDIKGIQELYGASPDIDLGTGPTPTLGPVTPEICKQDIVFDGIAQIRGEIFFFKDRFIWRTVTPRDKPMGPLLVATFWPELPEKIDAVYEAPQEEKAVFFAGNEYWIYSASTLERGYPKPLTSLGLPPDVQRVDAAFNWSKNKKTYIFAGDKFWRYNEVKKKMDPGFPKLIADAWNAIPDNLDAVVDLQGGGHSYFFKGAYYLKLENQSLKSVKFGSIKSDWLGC
# method-notes: In vitro fluorometric inhibition assay of MMPs: MMP-2
# Type: biochemical
# assay-context: Table I, cells marked (*)
value-kind: IC50

{"columns": ["compound", "assay-result"],
 "data": [
  ["COc1ccc(-c2ccc(Sc3ccccc3CC(=O)NO)cc2)cc1", "6.8 nM"],
  ["O=C(Cc1ccccc1Sc1ccc(-c2ccccc2)cc1)NO [Compound 21a]", "41.1 nM"],
  ["O=C(Cc1ccccc1Sc1ccc(-c2ccsc2)cc1)NO", "37.9 nM"]
]}
